B1: MGC16075 (parent)
chain: AGSRQALSFEVPPCNYDPEKWIQ

variants of: B1; assay: protein stability index of a GFP-peptide fusion (GPS, HEK-293T) (PSI 1-6); higher = more stable; details: c terminus: native;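 note: lentivirally expressed fusions sorted by FACS into six bins by GFP to DsRed ratio, PSI derived from sequencing read proportions per bin multiplied by bin number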
Could you please report measured protein stability index for the items listed next?

Provide protein stability index values for the following items, in order.
1. Y16E
2. E10H
3. S8G
4. E19M
5. R4W
6. V11K
7. R4D

(A)
[2.64, 3.09, 1.83, 1.52, 3.74, 2.61, 2.41]

Provide protein stability index values for the following items, in order.
1. K20T
2. A6G
3. Q5A
4. D17A

(A)
1. 3.33
2. 1.03
3. 1.8
4. 2.18

Provide protein stability index values for the following items, in order.
1. C14K
2. F9A

(A)
1: 1.64; 2: 2.63

Origin of measurements: the supplement of paper PMC10567573
